test: Pharmacokinetics in rat hepatic portal and tail veins after oral administration; format: in vivo; details: hepatic portal vein plasma, oral, 0.5 mg/kg (footnote *), read-out: Hepatic portal vein Prodrug AUC
outcome measure: AUC (ng·h/mL)

compound	outcome measure	recorded result
CC(C)[C@H](NC(=O)CCCC(=O)NC(=N)NC(=O)Cc1c(Cl)cccc1Cl)C(=O)O [Compound 1, Guanfacine (Glutaryl-(S)-Valine) Amide]	AUC	159

----------
test: Pharmacokinetics in rat hepatic portal and tail veins after oral administration; format: in vivo; details: hepatic portal vein plasma, po, 1 mg/kg, read-out: Hepatic portal vein Prodrug Cmax

molecule	Cmax
CNCC(=O)N[C@H](C(=O)O)[C@@H](C)OC(=O)NC(=N)NC(=O)Cc1c(Cl)cccc1Cl	23.7 ng/mL
CC(C)[C@H](N)C(=O)NCCC(=O)NC(=N)NC(=O)Cc1c(Cl)cccc1Cl [Compound 2, Guanfacine (β-Alanine-(S)-Valine) Amide]	46.4 ng/mL
CC(C)[C@@H](N)C(=O)N[C@@H](CCC(=O)NC(=N)NC(=O)Cc1c(Cl)cccc1Cl)C(=O)O	41.5 ng/mL
CNCC(=O)N[C@@H](COC(=O)NC(=N)NC(=O)Cc1c(Cl)cccc1Cl)C(=O)O	43.4 ng/mL
C[C@@H](N)C(=O)N[C@@H](CCC(=O)NC(=N)NC(=O)Cc1c(Cl)cccc1Cl)C(=O)O	31.9 ng/mL
